Measured values drawn from BindingDB's records for doi:10.1016/j.bmc.2020.115622 for this set.

Test: Inhibition of chemR23 expressed in human CAL1 cells assessed as reduction in chemerin-induced chemotaxis incubated for 4 hrs by cell counting based CellTiter-Glo assay
readout-label: pIC50
Answers are plain numbers, as −log10 of the molar value.

>  <smiles-notation>
Cc1ccc(-c2nc(=O)o[nH]2)c(-c2ccc([C@@H](C)N(CC3CC3)c3nc4c(C(=O)O)cccc4o3)cc2)c1

>  <readout-label>
pIC50

>  <result>
7.20

$$$$

Pending molecule:
Just so you know, measured pIC50 for CCCCN(c1nc2c(C(=O)O)cccc2o1)[C@H](C)c1ccc(-c2cc(Cl)ccc2-c2nc(=O)o[nH]2)cc1 came out at 6.63
